Data origin: patent US20200323772A1

assay: Pharmacokinetic study of oral vs intra-cecal tacrolimus: blood, GI tissue, luminal and rectal content concentrations (Example 13); design: species or system Yorkshire-Cross farm swine; conditions: female, Yorkshire-Cross, pig, in vivo, po, 0.09 mg/kg
quantity-measured: Kp at 12 h
Answer with a number only.

Request: Consider the molecule shown here: C=CC[C@@H]1/C=C(\C)C[C@H](C)C[C@H](OC)[C@H]2O[C@@](O)(C(=O)C(=O)N3CCCC[C@H]3C(=O)O[C@H](/C(C)=C/[C@@H]3CC[C@@H](O)[C@H](OC)C3)[C@H](C)[C@@H](O)CC1=O)[C@H](C)C[C@@H]2OC [tacrolimus] What is its recorded Kp at 12 h?
Result: 0
